Please go through the items and note down their IC50.
target: rat SERT (Rattus norvegicus, UniProt P31652); construct: from tissue; host or cells: rat striatum (membranes); assay: Rat SERT binding, [3H]citalopram, striatal membranes; settings: Table 1; read-out: SERT, IC50
Sequence (P31652 whole entry): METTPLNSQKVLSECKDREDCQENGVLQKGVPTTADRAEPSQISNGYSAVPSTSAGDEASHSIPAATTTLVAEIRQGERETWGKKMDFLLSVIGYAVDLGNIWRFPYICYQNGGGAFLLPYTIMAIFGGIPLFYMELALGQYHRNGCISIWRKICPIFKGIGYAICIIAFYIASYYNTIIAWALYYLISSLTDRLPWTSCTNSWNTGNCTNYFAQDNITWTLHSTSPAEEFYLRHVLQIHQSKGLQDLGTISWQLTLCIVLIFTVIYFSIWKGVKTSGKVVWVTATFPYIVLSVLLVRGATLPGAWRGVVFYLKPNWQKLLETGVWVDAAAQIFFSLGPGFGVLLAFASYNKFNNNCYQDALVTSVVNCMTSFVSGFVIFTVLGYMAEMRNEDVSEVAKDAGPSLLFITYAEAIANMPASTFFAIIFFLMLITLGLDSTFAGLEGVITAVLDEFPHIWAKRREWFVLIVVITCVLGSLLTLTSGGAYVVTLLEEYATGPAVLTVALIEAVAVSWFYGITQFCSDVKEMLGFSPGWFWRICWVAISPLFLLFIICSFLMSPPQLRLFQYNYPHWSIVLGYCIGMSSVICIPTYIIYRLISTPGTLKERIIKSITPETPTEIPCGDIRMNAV
# output: bare number, implied unit nM

Query: Fill in: IC50 of Fc1cccc(CN2CCC(CCOC(c3ccccc3)c3ccccc3)CC2)c1 [Example 1] is ___
Response: 1150

Query: State the recorded IC50 for this entry: Oc1cccc(CN2CCC(CCOC(c3ccccc3)c3ccccc3)CC2)c1 [Example 3-OH]
Response: 984

Query: Recorded IC50 for CS(=O)(=O)Nc1ccc(CN2CCC(CCOC(c3ccccc3)c3ccccc3)CC2)cc1 [Example 6] , please?
Response: 586

Query: // IC50 lookup, key: c1ccc(CN2CCC(CCNC(c3ccccc3)c3ccccc3)CC2)cc1 [Example 9]
Response: 1560

Query: Using the record for Ic1ccc(CN2CCC(CCOC(c3ccccc3)c3ccccc3)CC2)cc1 [Example 19] , report its IC50.
Response: 2920

Query: Tell me the measured IC50 of Fc1ccc(C(NCC2CCN(CCc3ccccc3)CC2)c2ccc(F)cc2)cc1 [Example 12] , please.
Response: 1100

Query: Request the reported IC50 associated with CC(OCCC1CCN(Cc2ccc(F)cc2)CC1)c1ccccc1 (centres unmarked)
Response: 5860

Query: Could you share which IC50 value was measured for Fc1ccc(CN2CCC(CNOC(c3ccccc3)c3ccccc3)CC2)cc1 [Example 7] ?
Response: 626

Query: Look up IC50 for this molecule: CN(CCC1CCN(Cc2ccccc2)CC1)C(c1ccccc1)c1ccccc1 [Example 10]
Response: 1660

Query: Please give the measured IC50 for this molecule: Fc1ccc(CN2CCC(CNCC(c3ccccc3)c3ccccc3)CC2)cc1 [Example 11]
Response: 137

Query: I would be grateful if you could share the reported IC50 for CN(CC1CCN(Cc2ccc(F)cc2)CC1)CC(c1ccccc1)c1ccccc1 [Example 13] .
Response: 2520

---

biological target: rat DAT (Rattus norvegicus); experiment: Rat DAT binding, [3H]Win 35,428, striatal membranes
Sequence (P23977 whole entry): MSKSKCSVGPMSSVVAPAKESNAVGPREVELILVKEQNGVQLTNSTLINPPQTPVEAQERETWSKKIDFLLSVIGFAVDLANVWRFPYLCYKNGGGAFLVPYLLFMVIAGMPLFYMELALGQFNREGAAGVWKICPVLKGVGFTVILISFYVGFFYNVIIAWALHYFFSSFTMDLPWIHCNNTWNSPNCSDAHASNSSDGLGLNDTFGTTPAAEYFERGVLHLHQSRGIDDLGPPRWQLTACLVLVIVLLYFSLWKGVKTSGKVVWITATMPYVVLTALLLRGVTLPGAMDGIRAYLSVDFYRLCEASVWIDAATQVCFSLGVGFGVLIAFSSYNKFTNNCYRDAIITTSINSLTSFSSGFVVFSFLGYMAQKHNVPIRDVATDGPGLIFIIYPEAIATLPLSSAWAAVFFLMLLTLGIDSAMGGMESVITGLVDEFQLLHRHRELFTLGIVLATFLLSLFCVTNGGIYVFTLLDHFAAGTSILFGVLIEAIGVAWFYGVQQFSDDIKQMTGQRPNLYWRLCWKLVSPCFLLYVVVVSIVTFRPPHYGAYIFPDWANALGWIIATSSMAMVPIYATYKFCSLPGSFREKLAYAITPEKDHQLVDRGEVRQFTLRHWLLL
What SERT/DAT selectivity ratio was measured for each of the following?
Respond with the number and no other words.

Query: Could you share which SERT/DAT selectivity ratio value was measured for N#Cc1ccc(CN2CCC(CCOC(c3ccccc3)c3ccccc3)CC2)cc1 ?
Response: 615

Query: # SERT/DAT selectivity ratio lookup, item Fc1ccc(CN2CCC(CCOC(c3ccccc3)c3ccccc3)CC2)cc1F
Response: 122

Query: # SERT/DAT selectivity ratio lookup, item Fc1ccc(CN[C@H]2CC[C@H](C(c3ccccc3)c3ccccc3)NC2)cc1 (racemic) [(±)-7b]
Response: 6.28

Query: Please look up its SERT/DAT selectivity ratio: Fc1ccc(CNC2CCC(C(c3ccccc3)c3ccccc3)NC2)cc1 (racemic) [(±)-7a]
Response: 93.7

---

biological target: dopamine transporter (DAT) (Rattus norvegicus); settings: read-out: [3H]DA Inhibition, IC50; Table 2, rat synaptosome tissue
Sequence (P23977 whole entry): as above
propertyName: IC50
I'd appreciate it if you wrote the number followed by its unit.

Query: What value of measured IC50 is listed for Fc1ccc(CN2CCC(CNCC(c3ccccc3)c3ccccc3)CC2)cc1 ?
Response: 49.6 nM

---

biological target: Norepinephrine (NET) Transporter (Rattus norvegicus, UniProt Q63380); construct: and norepinephrine Transporters in Rat Striatum; from tissue; assay: NET binding, [3H]nisoxetine; conditions: Table 1; read-out: NET, IC50
Sequence (Q63380 1-617): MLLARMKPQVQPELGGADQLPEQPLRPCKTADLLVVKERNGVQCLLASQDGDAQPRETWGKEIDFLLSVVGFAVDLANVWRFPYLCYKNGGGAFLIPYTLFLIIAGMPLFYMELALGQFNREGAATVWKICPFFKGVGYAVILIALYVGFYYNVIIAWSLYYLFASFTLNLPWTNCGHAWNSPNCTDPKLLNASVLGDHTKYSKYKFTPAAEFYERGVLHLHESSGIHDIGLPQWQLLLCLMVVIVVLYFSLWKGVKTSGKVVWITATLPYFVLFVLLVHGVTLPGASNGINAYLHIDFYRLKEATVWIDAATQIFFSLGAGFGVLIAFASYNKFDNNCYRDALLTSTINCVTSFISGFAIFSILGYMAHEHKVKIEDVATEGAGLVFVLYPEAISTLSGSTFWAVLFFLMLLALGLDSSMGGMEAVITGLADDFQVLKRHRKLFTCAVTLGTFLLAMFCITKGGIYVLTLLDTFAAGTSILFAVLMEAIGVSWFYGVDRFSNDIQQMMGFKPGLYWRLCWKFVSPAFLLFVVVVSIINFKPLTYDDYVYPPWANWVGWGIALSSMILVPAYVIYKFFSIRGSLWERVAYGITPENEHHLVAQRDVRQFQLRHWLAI
propertyName: IC50 (nM)
The answer is to be given in nM; state only the numeric part.

Query: What value of IC50 has been recorded for this entry: Fc1ccc(CN2CCC(CCNC(c3ccccc3)c3ccccc3)CC2)cc1F [Example 8]
Response: 1030

Query: Endpoint output: IC50 of Oc1cccc(CN2CCC(CCOC(c3ccccc3)c3ccccc3)CC2)c1 [Example 3-OH] . Value?
Response: 678

Query: I have this molecule here, c1ccc(CN2CCC(CCNC(c3ccccc3)c3ccccc3)CC2)cc1 [Example 9] , and I need its recorded IC50.
Response: 2620
